Taken from the supplement of paper PMC10307832.

Below, each entry is listed alongside its reported relative viability.
System: HCC-366
Test: relative viability (nuclei count vs DMSO), 5 days (fraction); higher = more cells survive
Details: first compound 0.0002 µM
Quick one: just the number, no unit, thanks!

CC(=O)O[C@@]12CO[C@@H]1C[C@H](O)[C@@]1(C)C(=O)[C@H](O)C3=C(C)[C@@H](OC(=O)[C@H](O)[C@@H](NC(=O)OC(C)(C)C)c4ccccc4)C[C@@](O)([C@@H](OC(=O)c4ccccc4)[C@H]21)C3(C)C [Docetaxel] + Cc1nc(Nc2ncc(C(=O)Nc3c(C)cccc3Cl)s2)cc(N2CCN(CCO)CC2)n1 [Dasatinib] (partner 0.075 µM) :: 0.569
CC(=O)O[C@@]12CO[C@@H]1C[C@H](O)[C@@]1(C)C(=O)[C@H](O)C3=C(C)[C@@H](OC(=O)[C@H](O)[C@@H](NC(=O)OC(C)(C)C)c4ccccc4)C[C@@](O)([C@@H](OC(=O)c4ccccc4)[C@H]21)C3(C)C [Docetaxel] + COc1cc2c(Oc3ccc(NC(=O)C4(C(=O)Nc5ccc(F)cc5)CC4)cc3F)ccnc2cc1OCCCN1CCOCC1 [Foretinib] (partner 0.25 µM) :: 0.85
CC(=O)O[C@@]12CO[C@@H]1C[C@H](O)[C@@]1(C)C(=O)[C@H](O)C3=C(C)[C@@H](OC(=O)[C@H](O)[C@@H](NC(=O)OC(C)(C)C)c4ccccc4)C[C@@](O)([C@@H](OC(=O)c4ccccc4)[C@H]21)C3(C)C [Docetaxel] + N=C(N)NC(=N)NCCc1ccccc1 [Phenformin] (partner 250 µM) :: 0.599

Field: next molecule
Data point: CC(=O)O[C@@]12CO[C@@H]1C[C@H](O)[C@@]1(C)C(=O)[C@H](O)C3=C(C)[C@@H](OC(=O)[C@H](O)[C@@H](NC(=O)OC(C)(C)C)c4ccccc4)C[C@@](O)([C@@H](OC(=O)c4ccccc4)[C@H]21)C3(C)C [Docetaxel] + CS(=O)(=O)N1CCN(Cc2cc3nc(-c4cccc5[nH]ncc45)nc(N4CCOCC4)c3s2)CC1 [Pictilisib] (partner 1 µM) ; relative viability = 0.0877

* * *

System: COR-L23
Test: relative viability (nuclei count vs DMSO), 5 days (fraction); higher = more cells survive
Details: first compound 0.253 µM
metric.name: relative viability
Quick one: just the number, no unit, thanks!

O=c1[nH]c2ccccc2n1C1CCN(CCCC(c2ccc(F)cc2)c2ccc(F)cc2)CC1 [Pimozide] + O=C(c1cc(Cc2n[nH]c(=O)c3ccccc23)ccc1F)N1CCN(C(=O)C2CC2)CC1 [Olaparib] (partner 8 µM) :: 0.308
Cc1cnc(-c2cnc(NCCNc3ccc(C#N)cn3)nc2-c2ccc(Cl)cc2Cl)[nH]1 + CS(=O)(=O)CCNCc1ccc(-c2ccc3ncnc(Nc4ccc(OCc5cccc(F)c5)c(Cl)c4)c3c2)o1 [Lapatinib] (partner 2 µM) :: 0.856
O=c1[nH]c2ccccc2n1C1CCN(CCCC(c2ccc(F)cc2)c2ccc(F)cc2)CC1 [Pimozide] + CCNC(=O)c1noc(-c2cc(C(C)C)c(O)cc2O)c1-c1ccc(CN2CCOCC2)cc1 [Luminespib] (partner 0.01 µM) :: 0.628

Field: next compound
Known value: COR-L23 relative viability of the compound Cc1cnc(-c2cnc(NCCNc3ccc(C#N)cn3)nc2-c2ccc(Cl)cc2Cl)[nH]1 + Nc1ncn([C@H]2C[C@H](O)[C@@H](CO)O2)c(=O)n1 [Decitabine] (partner 2 µM) equals 0.367

* * *

Test system: COR-L 105
Test: relative viability (nuclei count vs DMSO), 5 days (fraction); higher = more cells survive
Settings: first compound 0.0002 µM
Below, each entry is listed alongside its reported relative viability.
Quick one: just the number, no unit, thanks!

Here is how some compounds turned out for relative viability.
CC(=O)O[C@@]12CO[C@@H]1C[C@H](O)[C@@]1(C)C(=O)[C@H](O)C3=C(C)[C@@H](OC(=O)[C@H](O)[C@@H](NC(=O)OC(C)(C)C)c4ccccc4)C[C@@](O)([C@@H](OC(=O)c4ccccc4)[C@H]21)C3(C)C [Docetaxel] + COc1cccc2cc(-c3nc([C@H]4CC[C@H](C(=O)O)CC4)n4ncnc(N)c34)[nH]c12 [OSI-027] (partner 0.5 µM) :: 0.569
CC(=O)O[C@@]12CO[C@@H]1C[C@H](O)[C@@]1(C)C(=O)[C@H](O)C3=C(C)[C@@H](OC(=O)[C@H](O)[C@@H](NC(=O)OC(C)(C)C)c4ccccc4)C[C@@](O)([C@@H](OC(=O)c4ccccc4)[C@H]21)C3(C)C [Docetaxel] + Cc1cc(Nc2cc(N3CCN(C)CC3)nc(Sc3ccc(NC(=O)C4CC4)cc3)n2)n[nH]1 [Tozasertib] (partner 0.1 µM) :: 0.323

Data point: CC(=O)O[C@@]12CO[C@@H]1C[C@H](O)[C@@]1(C)C(=O)[C@H](O)C3=C(C)[C@@H](OC(=O)[C@H](O)[C@@H](NC(=O)OC(C)(C)C)c4ccccc4)C[C@@](O)([C@@H](OC(=O)c4ccccc4)[C@H]21)C3(C)C [Docetaxel] + CCNC(=O)c1noc(-c2cc(C(C)C)c(O)cc2O)c1-c1ccc(CN2CCOCC2)cc1 [Luminespib] (partner 0.01 µM) ; relative viability = 0.99

Data point: CC(=O)O[C@@]12CO[C@@H]1C[C@H](O)[C@@]1(C)C(=O)[C@H](O)C3=C(C)[C@@H](OC(=O)[C@H](O)[C@@H](NC(=O)OC(C)(C)C)c4ccccc4)C[C@@](O)([C@@H](OC(=O)c4ccccc4)[C@H]21)C3(C)C [Docetaxel] + CC1(C)CCC(c2ccc(Cl)cc2)=C(CN2CCN(c3ccc(C(=O)NS(=O)(=O)c4ccc(N[C@H](CCN5CCOCC5)CSc5ccccc5)c(S(=O)(=O)C(F)(F)F)c4)cc3)CC2)C1 [Navitoclax] (partner 0.5 µM) ; relative viability = 0.94

* * *

Below, each entry is listed alongside its reported relative viability.
System: NCI-H1755
Test: relative viability (nuclei count vs DMSO), 5 days (fraction); higher = more cells survive
Conditions: first compound 0.05 µM
Quick one: just the number, no unit, thanks!

Here is how some compounds turned out for relative viability.
COc1cc2nccc(Oc3ccc(NC(=O)Nc4cc(C)on4)c(Cl)c3)c2cc1OC [Tivozanib] + COc1cccc2cc(-c3nc([C@H]4CC[C@H](C(=O)O)CC4)n4ncnc(N)c34)[nH]c12 [OSI-027] (partner 0.5 µM) :: 0.733
COc1cc2nccc(Oc3ccc(NC(=O)Nc4cc(C)on4)c(Cl)c3)c2cc1OC [Tivozanib] + Cc1cc(Nc2cc(N3CCN(C)CC3)nc(Sc3ccc(NC(=O)C4CC4)cc3)n2)n[nH]1 [Tozasertib] (partner 0.1 µM) :: 0.588
Nc1ccn([C@@H]2O[C@H](CO)[C@@H](O)[C@@H]2O)c(=O)n1 [Cytarabine] + Cc1nc(Nc2ncc(C(=O)Nc3c(C)cccc3Cl)s2)cc(N2CCN(CCO)CC2)n1 [Dasatinib] (partner 0.075 µM) :: 0.372
Nc1ccn([C@@H]2O[C@H](CO)[C@@H](O)[C@@H]2O)c(=O)n1 [Cytarabine] + Cc1nc(NC(=O)N2CCC[C@H]2C(N)=O)sc1-c1ccnc(C(C)(C)C(F)(F)F)c1 [Alpelisib] (partner 2 µM) :: 0.75
Nc1ccn([C@@H]2O[C@H](CO)[C@@H](O)[C@@H]2O)c(=O)n1 [Cytarabine] + N=C(N)NC(=N)NCCc1ccccc1 [Phenformin] (partner 250 µM) :: 0.466

Field: next compound
Data point: COc1cc2nccc(Oc3ccc(NC(=O)Nc4cc(C)on4)c(Cl)c3)c2cc1OC [Tivozanib] + CS(=O)(=O)N1CCN(Cc2cc3nc(-c4cccc5[nH]ncc45)nc(N4CCOCC4)c3s2)CC1 [Pictilisib] (partner 1 µM) ; relative viability = 0.453

* * *

Test system: NCI-H727
Assay: relative viability (nuclei count vs DMSO), 5 days (fraction); higher = more cells survive
Details: first compound 0.05 µM
metric.name: relative viability
Quick one: just the number, no unit, thanks!

Known value: NCI-H727 relative viability of the compound COc1cc2nccc(Oc3ccc(NC(=O)Nc4cc(C)on4)c(Cl)c3)c2cc1OC [Tivozanib] + Cc1cc(Nc2cc(N3CCN(C)CC3)nc(Sc3ccc(NC(=O)C4CC4)cc3)n2)n[nH]1 [Tozasertib] (partner 0.1 µM) equals 0.588

Known value: NCI-H727 relative viability of the compound COc1cc2nccc(Oc3ccc(NC(=O)Nc4cc(C)on4)c(Cl)c3)c2cc1OC [Tivozanib] + CC(C)C[C@H](NC(=O)[C@H](Cc1ccccc1)NC(=O)c1cnccn1)B(O)O [Bortezomib] (partner 0.002 µM) equals 0.772

Known value: NCI-H727 relative viability of the compound Nc1ccn([C@@H]2O[C@H](CO)[C@@H](O)[C@@H]2O)c(=O)n1 [Cytarabine] + C[C@@H](Oc1cc(-c2cnn(C3CCNCC3)c2)cnc1N)c1c(Cl)ccc(F)c1Cl [Crizotinib] (partner 1 µM) equals 0.636

Known value: NCI-H727 relative viability of the compound Nc1ccn([C@@H]2O[C@H](CO)[C@@H](O)[C@@H]2O)c(=O)n1 [Cytarabine] + N=C(N)NC(=N)NCCc1ccccc1 [Phenformin] (partner 250 µM) equals 0.486

Known value: NCI-H727 relative viability of the compound COc1cc2nccc(Oc3ccc(NC(=O)Nc4cc(C)on4)c(Cl)c3)c2cc1OC [Tivozanib] + N=C(N)NC(=N)NCCc1ccccc1 [Phenformin] (partner 250 µM) equals 0.439
